Each recorded value in this set is attributed to paper PMC4870556.

Item-by-item account of Kd
# target-entity: wild type ScErg11p6 × His (Saccharomyces cerevisiae)
# Construct: full-length Saccharomyces cerevisiae hexahistidine-tagged Erg11p (ScErg11p6 × His)
# method-summary: Type II difference spectra triazole binding to affinity purified wild type enzyme
# test-settings: wild-type enzyme 1 μM, Hill equation fit; standard error in brackets
# Procedure: Ni-NTA affinity purified mutant and wild type ScErg11p6 × His preparations (1 μM) were used to detect and quantitate type II azole binding. The spectral shift of the Soret peak from 417 nm to 421–424 nm in cytochrome P450s is also detected by the type II difference spectra. […] They gave 2–3-fold smaller differences in absorbance (ΔAmax), with peaks shifted from 428 nm for wild type enzyme to 424–425 nm for the mutant enzymes plus less well-defined troughs between 406–410 nm (Supplementary Table S3). […]
Express it in nM; write the number only.

Here is how some molecules turned out for Kd.
>  <molecule>
CC[C@@H]([C@H](C)O)n1ncn(-c2ccc(N3CCN(c4ccc(OC[C@@H]5CO[C@@](Cn6cncn6)(c6ccc(F)cc6F)C5)cc4)CC3)cc2)c1=O [PCZ, posaconazole]

>  <target-entity>
wild type ScErg11p6 × His (Saccharomyces cerevisiae)

>  <Kd, nM>
78

$$$$
>  <molecule>
CCC(C)n1ncn(-c2ccc(N3CCN(c4ccc(OCC5COC(Cn6cncn6)(c6ccc(Cl)cc6Cl)O5)cc4)CC3)cc2)c1=O (stereo not shown) [ITC, itraconazole]

>  <target-entity>
wild type ScErg11p6 × His (Saccharomyces cerevisiae)

>  <Kd, nM>
123

$$$$
>  <molecule>
C[C@@H](c1ncncc1F)[C@](O)(Cn1cncn1)c1ccc(F)cc1F [VCZ, voriconazole]

>  <target-entity>
wild type ScErg11p6 × His (Saccharomyces cerevisiae)

>  <Kd, nM>
82

$$$$

Please turn your attention to the following entry.
Field Kd (entry OC(Cn1cncn1)(Cn1cncn1)c1ccc(F)cc1F [FLC, fluconazole] ) reads 74

----------
Item-by-item account of IC50
# target-entity: wild type ScErg11p6 × His (Saccharomyces cerevisiae)
# Construct: full-length Saccharomyces cerevisiae hexahistidine-tagged Erg11p (ScErg11p6 × His)
# method-summary: Type II difference spectra triazole binding to affinity purified wild type enzyme
# test-settings: wild-type enzyme 1 μM, Hill equation fit; IC50 value is denoted as [Azole]0.5
Express it in nM; write the number only.

>  <compound>
CCC(C)n1ncn(-c2ccc(N3CCN(c4ccc(OCC5COC(Cn6cncn6)(c6ccc(Cl)cc6Cl)O5)cc4)CC3)cc2)c1=O (stereo not shown) [ITC, itraconazole]

>  <outcome-measure>
IC50

>  <assay-value>
280

$$$$
>  <compound>
OC(Cn1cncn1)(Cn1cncn1)c1ccc(F)cc1F [FLC, fluconazole]

>  <outcome-measure>
IC50

>  <assay-value>
430

$$$$
>  <compound>
C[C@@H](c1ncncc1F)[C@](O)(Cn1cncn1)c1ccc(F)cc1F [VCZ, voriconazole]

>  <outcome-measure>
IC50

>  <assay-value>
400

$$$$

Please turn your attention to the following entry.
Field IC50 (entry CC[C@@H]([C@H](C)O)n1ncn(-c2ccc(N3CCN(c4ccc(OC[C@@H]5CO[C@@](Cn6cncn6)(c6ccc(F)cc6F)C5)cc4)CC3)cc2)c1=O [PCZ, posaconazole] ) reads 320

----------
Item-by-item account of Hill number
# target-entity: ScErg11p6 × His Y140F (Saccharomyces cerevisiae, UniProt P10614, Y140F)
# Construct: full-length Saccharomyces cerevisiae hexahistidine-tagged Erg11p (ScErg11p6 × His); made in house; host or cells: Saccharomyces cerevisiae strain AD3ΔScErg11_Y140F (native ERG11 deleted)
# Sequence (P10614 whole entry Y140F): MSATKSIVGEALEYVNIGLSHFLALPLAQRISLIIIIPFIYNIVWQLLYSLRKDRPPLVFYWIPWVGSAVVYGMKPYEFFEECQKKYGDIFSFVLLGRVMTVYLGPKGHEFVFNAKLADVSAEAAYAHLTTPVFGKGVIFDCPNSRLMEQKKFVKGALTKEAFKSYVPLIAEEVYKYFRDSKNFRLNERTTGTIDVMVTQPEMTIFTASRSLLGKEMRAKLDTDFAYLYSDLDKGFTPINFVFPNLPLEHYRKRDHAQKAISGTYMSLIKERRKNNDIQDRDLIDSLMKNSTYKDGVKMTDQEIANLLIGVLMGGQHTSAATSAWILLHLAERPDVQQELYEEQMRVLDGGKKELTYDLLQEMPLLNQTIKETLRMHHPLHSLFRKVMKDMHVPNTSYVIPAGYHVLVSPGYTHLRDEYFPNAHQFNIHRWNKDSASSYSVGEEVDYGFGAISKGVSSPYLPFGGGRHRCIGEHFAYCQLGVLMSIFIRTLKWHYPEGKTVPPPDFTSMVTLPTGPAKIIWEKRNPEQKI
# method-summary: Type II difference spectra triazole binding to affinity purified Y140F mutant enzyme
# test-settings: Y140F enzyme 1 μM
Respond using a number only.

Here is how some compounds turned out for Hill number.
>  <compound>
CCC(C)n1ncn(-c2ccc(N3CCN(c4ccc(OCC5COC(Cn6cncn6)(c6ccc(Cl)cc6Cl)O5)cc4)CC3)cc2)c1=O (stereo not shown)

>  <Hill number>
1.83

$$$$
>  <compound>
OC(Cn1cncn1)(Cn1cncn1)c1ccc(F)cc1F

>  <Hill number>
1.86

$$$$
>  <compound>
C[C@@H](c1ncncc1F)[C@](O)(Cn1cncn1)c1ccc(F)cc1F

>  <Hill number>
2.60

$$$$

Please turn your attention to the following entry.
Field Hill number (entry CC[C@@H]([C@H](C)O)n1ncn(-c2ccc(N3CCN(c4ccc(OC[C@@H]5CO[C@@](Cn6cncn6)(c6ccc(F)cc6F)C5)cc4)CC3)cc2)c1=O ) reads 1.57

----------
Item-by-item account of Kd
# target-entity: ScErg11p6 × His Y140H (Saccharomyces cerevisiae, UniProt P10614, Y140H)
# Construct: full-length Saccharomyces cerevisiae hexahistidine-tagged Erg11p (ScErg11p6 × His)
# Sequence (P10614 whole entry Y140H): as the sequence (P10614 whole entry Y140F) above, with F140H counted along it
# method-summary: Type II difference spectra triazole binding to affinity purified Y140H mutant enzyme
# test-settings: Y140H enzyme 1 μM, Hill equation fit; standard error in brackets
Express it in µM; write the number only.

Here is how some compounds turned out for Kd.
>  <compound>
OC(Cn1cncn1)(Cn1cncn1)c1ccc(F)cc1F [FLC, fluconazole]

>  <unit-symbol>
µM

>  <assay-value>
0.11

$$$$
>  <compound>
C[C@@H](c1ncncc1F)[C@](O)(Cn1cncn1)c1ccc(F)cc1F [VCZ, voriconazole]

>  <unit-symbol>
µM

>  <assay-value>
0.22

$$$$
>  <compound>
CCC(C)n1ncn(-c2ccc(N3CCN(c4ccc(OCC5COC(Cn6cncn6)(c6ccc(Cl)cc6Cl)O5)cc4)CC3)cc2)c1=O (stereo not shown) [ITC, itraconazole]

>  <unit-symbol>
µM

>  <assay-value>
0.13

$$$$

Please turn your attention to the following entry.
Field Kd (entry CC[C@@H]([C@H](C)O)n1ncn(-c2ccc(N3CCN(c4ccc(OC[C@@H]5CO[C@@](Cn6cncn6)(c6ccc(F)cc6F)C5)cc4)CC3)cc2)c1=O [PCZ, posaconazole] ) reads 0.1

----------
# target-entity: ScErg11p6 × His Y140F (Saccharomyces cerevisiae, UniProt P10614, Y140F)
# Construct: full-length Saccharomyces cerevisiae hexahistidine-tagged Erg11p (ScErg11p6 × His)
# method-summary: Type II difference spectra triazole binding to affinity purified Y140F mutant enzyme
# test-settings: Y140F enzyme 1 μM, Hill equation fit; standard error in brackets
outcome-measure: pKd
Entry type: numeric. Quantity: pKd, the -log10 of concentration in molar units.

>  <compound>
C[C@@H](c1ncncc1F)[C@](O)(Cn1cncn1)c1ccc(F)cc1F

>  <target-entity>
ScErg11p6 × His Y140F (Saccharomyces cerevisiae, UniProt P10614, Y140F)

>  <outcome-measure>
pKd

>  <assay-value>
7.52

$$$$

Field pKd (entry CCC(C)n1ncn(-c2ccc(N3CCN(c4ccc(OCC5COC(Cn6cncn6)(c6ccc(Cl)cc6Cl)O5)cc4)CC3)cc2)c1=O (stereo not shown) ) reads 6.89

Field pKd (entry OC(Cn1cncn1)(Cn1cncn1)c1ccc(F)cc1F ) reads 6.89

Field pKd (entry CC[C@@H]([C@H](C)O)n1ncn(-c2ccc(N3CCN(c4ccc(OC[C@@H]5CO[C@@](Cn6cncn6)(c6ccc(F)cc6F)C5)cc4)CC3)cc2)c1=O ) reads 6.82

----------
# target-entity: ScErg11p6 × His Y140H (Saccharomyces cerevisiae, UniProt P10614, Y140H)
# Construct: full-length Saccharomyces cerevisiae hexahistidine-tagged Erg11p (ScErg11p6 × His)
# method-summary: Type II difference spectra triazole binding to affinity purified Y140H mutant enzyme
# test-settings: Y140H enzyme 1 μM, Hill equation fit; IC50 value is denoted as [Azole]0.5
Item-by-item account of IC50
Express it in nM; write the number only.

Field IC50 (entry C[C@@H](c1ncncc1F)[C@](O)(Cn1cncn1)c1ccc(F)cc1F ) reads 290

Field IC50 (entry CC[C@@H]([C@H](C)O)n1ncn(-c2ccc(N3CCN(c4ccc(OC[C@@H]5CO[C@@](Cn6cncn6)(c6ccc(F)cc6F)C5)cc4)CC3)cc2)c1=O ) reads 230

Field IC50 (entry CCC(C)n1ncn(-c2ccc(N3CCN(c4ccc(OCC5COC(Cn6cncn6)(c6ccc(Cl)cc6Cl)O5)cc4)CC3)cc2)c1=O (stereo not shown) ) reads 250

Field IC50 (entry OC(Cn1cncn1)(Cn1cncn1)c1ccc(F)cc1F ) reads 270

----------
Item-by-item account of ΔAmax of type II difference spectra
# target-entity: wild type ScErg11p6 × His (Saccharomyces cerevisiae, UniProt P10614)
# Construct: full-length Saccharomyces cerevisiae hexahistidine-tagged Erg11p (ScErg11p6 × His); made in house; host or cells: Saccharomyces cerevisiae strain AD3ΔScErg11p (overexpression from the PDR5 locus, native ERG11 deleted)
# Sequence (P10614 whole entry): as the sequence (P10614 whole entry Y140F) above, with F140Y counted along it
# method-summary: Type II difference spectra triazole binding to affinity purified wild type enzyme
# test-settings: wild-type enzyme, Ni-NTA affinity purified
Respond using a number only.

Here is how some compounds turned out for ΔAmax of type II difference spectra.
>  <compound>
CC[C@@H]([C@H](C)O)n1ncn(-c2ccc(N3CCN(c4ccc(OC[C@@H]5CO[C@@](Cn6cncn6)(c6ccc(F)cc6F)C5)cc4)CC3)cc2)c1=O

>  <outcome-measure>
ΔAmax of type II difference spectra

>  <assay-value>
0.031

$$$$
>  <compound>
OC(Cn1cncn1)(Cn1cncn1)c1ccc(F)cc1F

>  <outcome-measure>
ΔAmax of type II difference spectra

>  <assay-value>
0.048

$$$$
>  <compound>
C[C@@H](c1ncncc1F)[C@](O)(Cn1cncn1)c1ccc(F)cc1F

>  <outcome-measure>
ΔAmax of type II difference spectra

>  <assay-value>
0.051

$$$$

Please turn your attention to the following entry.
Field ΔAmax of type II difference spectra (entry CCC(C)n1ncn(-c2ccc(N3CCN(c4ccc(OCC5COC(Cn6cncn6)(c6ccc(Cl)cc6Cl)O5)cc4)CC3)cc2)c1=O (stereo not shown) ) reads 0.037
